Hello, the source for this data is PubChem BioAssay AID1117328, in case you need it.

tested-target: UniProt P23443
Sequence (P23443 whole entry, looked up): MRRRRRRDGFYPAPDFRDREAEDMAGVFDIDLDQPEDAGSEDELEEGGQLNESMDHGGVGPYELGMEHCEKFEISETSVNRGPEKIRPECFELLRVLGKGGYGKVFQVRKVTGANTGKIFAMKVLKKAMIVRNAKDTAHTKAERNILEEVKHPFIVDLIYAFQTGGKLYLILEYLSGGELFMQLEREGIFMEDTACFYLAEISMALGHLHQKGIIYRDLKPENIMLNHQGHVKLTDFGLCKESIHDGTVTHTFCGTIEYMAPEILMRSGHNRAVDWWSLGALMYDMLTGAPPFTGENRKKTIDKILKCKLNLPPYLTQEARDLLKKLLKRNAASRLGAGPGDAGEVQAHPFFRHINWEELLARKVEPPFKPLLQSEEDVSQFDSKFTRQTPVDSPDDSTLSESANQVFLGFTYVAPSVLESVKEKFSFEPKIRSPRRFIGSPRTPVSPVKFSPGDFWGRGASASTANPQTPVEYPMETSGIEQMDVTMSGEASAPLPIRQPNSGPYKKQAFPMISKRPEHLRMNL
experimental-details: inhibition of human S6K1 enzyme activity – biochemical, LANCE Ultra TR-FRET (AID 1117328)
condition-notes: LANCE Ultra TR-FRET kinase assay, p70S6K1; at 20 µM (top of the series)
Calls of active or inactive are those of the source. The rule behind the calls is not given here.
API: response.call in yes for active, no for inactive

So what was the verdict on CCC(C)n1ncn(-c2ccc(N3CCN(c4ccc(OC[C@H]5CO[C@](Cn6cncn6)(c6ccc(Cl)cc6Cl)O5)cc4)CC3)cc2)c1=O (stereo not given in full) in this test?
no

So what was the verdict on "CCCCCCCCCCCCCCCC[n+]1ccccc1" in this test?
no

So what was the verdict on "COc1cc([C@@H]2c3cc4c(cc3[C@H](O)[C@H]3COC(=O)[C@H]23)OCO4)cc(OC)c1OC" in this test?
no

So what was the verdict on "COC(=O)[C@H]1[C@H]2C[C@@H]3c4[nH]c5cc(OC)ccc5c4CCN3C[C@H]2C[C@@H](OC(=O)/C=C/c2ccc(O)c(OC)c2)[C@@H]1OC" in this test?
no

So what was the verdict on "CC(C)C[C@H](NC(=O)[C@H](Cc1ccccc1)NC(=O)c1cnccn1)B(O)O" in this test?
no

So what was the verdict on "Cc1cc(C)c(/C=C2\C(=O)Nc3ccccc32)[nH]1" in this test?
no

So what was the verdict on "O=C1c2c(O)ccc(O)c2C(=O)c2c(NCCNCCO)ccc(NCCNCCO)c21" in this test?
yes

So what was the verdict on "CCN(CC)CCNc1ccc(CO)c2sc3ccccc3c(=O)c12" in this test?
yes

So what was the verdict on "COC(=O)Nc1nc2ccc(C(=O)c3cccs3)cc2[nH]1" in this test?
no

So what was the verdict on C[n+]1c2cc(N)ccc2cc2ccc(N)cc21 (tested in a mixture with another compound) in this test?
yes

So what was the verdict on Cc1ccccc1C(=O)Nc1ccc(C(=O)N2CCCC(N(C)C)c3ccccc32)cc1 (stereo not given) in this test?
no

So what was the verdict on "C[C@@]12C(=O)OC(=O)[C@]1(C)C1CCC2O1" in this test?
no

So what was the verdict on "CNC(=O)c1cc(Oc2ccc(NC(=O)Nc3ccc(Cl)c(C(F)(F)F)c3)cc2)ccn1" in this test?
yes

So what was the verdict on "Cc1cc2c(C(C)C)c(O)c(O)c(C=O)c2c(O)c1-c1c(C)cc2c(C(C)C)c(O)c(O)c(C=O)c2c1O" in this test?
no

So what was the verdict on "COc1cc(NCc2ccc3nc(N)nc(N)c3c2C)cc(OC)c1OC" in this test?
no

So what was the verdict on "O=C(NOCC1CC1)c1ccc(F)c(F)c1Nc1ccc(I)cc1Cl" in this test?
no

So what was the verdict on "O=C(CCl)c1ccc(Cl)cc1Cl" in this test?
no

So what was the verdict on "COc1cc2nc(N3CCN(C(=O)c4ccco4)CC3)nc(N)c2cc1OC" in this test?
no

So what was the verdict on COC(=O)Nc1nc2ccc(S(=O)c3ccccc3)cc2[nH]1 (stereo not given) in this test?
no

So what was the verdict on "NC(=NCCCCCCN=C(N)/N=C(\N)Nc1ccc(Cl)cc1)/N=C(\N)Nc1ccc(Cl)cc1" in this test?
no

So what was the verdict on "COC(=O)Nc1nc2ccc(C(=O)c3ccccc3)cc2[nH]1" in this test?
no

So what was the verdict on CSc1ccc2c(c1)C(N1CCN(C)CC1)Cc1ccccc1S2 (stereo not given) in this test?
no

So what was the verdict on "Cc1nc(N)nc(N)c1-c1ccc(Cl)c(Cl)c1" in this test?
no

So what was the verdict on "O=C(CCCCCCC(=O)Nc1ccccc1)NO" in this test?
no

So what was the verdict on "COc1cc2c(c(OC)c1OC)-c1ccc(OC)c(=O)cc1[C@@H](NC(C)=O)CC2" in this test?
no

So what was the verdict on "O=C(O)c1ccc(-n2nc(-c3ccccc3O)nc2-c2ccccc2O)cc1" in this test?
no

So what was the verdict on "COc1cccc2c1C(=O)c1c(O)c3c(c(O)c1C2=O)C[C@@](O)(C(C)=O)C[C@@H]3O[C@H]1C[C@H](N)[C@H](O)[C@H](C)O1" in this test?
no

So what was the verdict on "S=c1nc[nH]c2nc[nH]c12" in this test?
no

So what was the verdict on "CCCCCCCCCCCCCCCCCCNC(=O)OC1CCN(C(=O)OC[C@H](COC(=O)N(Cc2cccc[n+]2CC)C(=O)c2ccccc2OC)OC)CC1" in this test?
no

So what was the verdict on "O=c1[nH]c(=O)n([C@H]2C[C@H](O)[C@@H](CO)O2)cc1F" in this test?
no

So what was the verdict on "Oc1c(Cl)cc(Cl)cc1Sc1cc(Cl)cc(Cl)c1O" in this test?
no

So what was the verdict on "COc1cc(-c2ccc(=O)[nH]n2)ccc1OC(F)F" in this test?
no

So what was the verdict on "Oc1c(Cl)cc(Cl)c2cccnc12" in this test?
no

So what was the verdict on "[O-][n+]1ccccc1SSc1cccc[n+]1[O-]" in this test?
no

So what was the verdict on "CC(=O)Oc1ccc(C2(c3ccc(OC(C)=O)cc3)Oc3ccccc3NC2=O)cc1" in this test?
no

So what was the verdict on "CCN(CC)CCOc1ccc(/C(=C(\Cl)c2ccccc2)c2ccccc2)cc1" in this test?
no

So what was the verdict on "C=CC(=O)Nc1cc2c(Nc3ccc(F)c(Cl)c3)ncnc2cc1OCCCN1CCOCC1" in this test?
no

So what was the verdict on "COc1ccc2cc1Oc1ccc(cc1)C[C@H]1c3c(cc4c(c3Oc3cc5c(cc3OC)CCN(C)[C@@H]5C2)OCO4)CCN1C" in this test?
no

So what was the verdict on "CC[C@@H]([C@H](C)O)n1ncn(-c2ccc(N3CCN(c4ccc(OC[C@@H]5CO[C@@](Cn6cncn6)(c6ccc(F)cc6F)C5)cc4)CC3)cc2)c1=O" in this test?
no

So what was the verdict on "CC(C)(C)C(=O)OCOP(=O)(COCCn1cnc2c(N)ncnc21)OCOC(=O)C(C)(C)C" in this test?
no

* * *

tested-target: Ribosomal protein S6 kinase beta-1 (Homo sapiens)
experimental-details: inhibition of human S6K1 enzyme activity – biochemical, LANCE Ultra TR-FRET (AID 1117328)
condition-notes: LANCE Ultra TR-FRET kinase assay, p70S6K1; at 20 µM (top of the series)
Please provide measured inhibition for the entries that follow.
Please state the figure in %; there is no need to write the unit.

Which inhibition value is on record for "O=C(Nc1ccc([N+](=O)[O-])cc1Cl)c1cc(Cl)ccc1O" ?
49.9

Which inhibition value is on record for "CCc1nc(N)nc(N)c1-c1ccc(Cl)cc1" ?
11.7

Which inhibition value is on record for "CC(=O)[C@]1(O)Cc2c(O)c3c(c(O)c2[C@@H](O[C@H]2C[C@H](N)[C@H](O)[C@H](C)O2)C1)C(=O)c1ccccc1C3=O" ?
-128

Which inhibition value is on record for "CCCCCCCCCCCCCC[N+](C)(C)C" ?
3.96

Which inhibition value is on record for "COc1ccc(-c2ccc3cc(C(=O)O)ccc3c2)cc1C12CC3CC(CC(C3)C1)C2" ?
29

Which inhibition value is on record for CCCN(CCC)C(=O)C(CCC(=O)OCCCN1CCN(CCOC(=O)Cc2c(C)n(C(=O)c3ccc(Cl)cc3)c3ccc(OC)cc23)CC1)NC(=O)c1ccccc1 (stereo not given) ?
-0.47

Which inhibition value is on record for "CN(C)c1ccc2nc3ccc(=[N+](C)C)cc-3sc2c1" ?
-350

Which inhibition value is on record for "CCCSc1ccc2nc(NC(=O)OC)[nH]c2c1" ?
-2.9

Which inhibition value is on record for "CCC1=C[C@@H]2CN(C1)Cc1c([nH]c3ccccc13)[C@@](C(=O)OC)(c1cc3c(cc1OC)N(C)[C@H]1[C@@](O)(C(=O)OC)[C@H](OC(C)=O)[C@]4(CC)C=CCN5CC[C@]31[C@@H]54)C2" ?
-0.16

Which inhibition value is on record for "Cc1cc(C2CCCCC2)n(O)c(=O)c1" ?
-2.62

* * *

tested-target: Ribosomal protein S6 kinase beta-1 (Homo sapiens)
experimental-details: inhibition of human S6K1 enzyme activity – biochemical, LANCE Ultra TR-FRET (AID 1117328)
condition-notes: LANCE Ultra TR-FRET kinase assay, p70S6K1; at 20 µM (top of the series)
Please provide measured inhibition for the entries that follow.
Please state the figure in %; there is no need to write the unit.

Which inhibition value is on record for "Cc1nc(Nc2ncc(C(=O)Nc3c(C)cccc3Cl)s2)cc(N2CCN(CCO)CC2)n1" ?
5.32

Which inhibition value is on record for "O=c1c(-c2ccccc2)c1-c1ccccc1" ?
5.11

Which inhibition value is on record for "CC[C@]1(O)C[C@@H]2CN(CCc3c([nH]c4ccccc34)[C@@](C(=O)OC)(c3cc4c(cc3OC)N(C)[C@H]3[C@@](O)(C(=O)OC)[C@H](OC(C)=O)[C@]5(CC)C=CCN6CC[C@]43[C@@H]65)C2)C1" ?
-1.14

Which inhibition value is on record for "CCCCCCNC(=O)n1cc(F)c(=O)[nH]c1=O" ?
-0.86
